Where these numbers come from: patent US20240109974A1

Molecular target: T1, human TNFR2 on the surface of CHO-TNFR2 cells (human, UniProt P20333 23-461)
T1 construct: whole, on cells
T1 sequence (looked up): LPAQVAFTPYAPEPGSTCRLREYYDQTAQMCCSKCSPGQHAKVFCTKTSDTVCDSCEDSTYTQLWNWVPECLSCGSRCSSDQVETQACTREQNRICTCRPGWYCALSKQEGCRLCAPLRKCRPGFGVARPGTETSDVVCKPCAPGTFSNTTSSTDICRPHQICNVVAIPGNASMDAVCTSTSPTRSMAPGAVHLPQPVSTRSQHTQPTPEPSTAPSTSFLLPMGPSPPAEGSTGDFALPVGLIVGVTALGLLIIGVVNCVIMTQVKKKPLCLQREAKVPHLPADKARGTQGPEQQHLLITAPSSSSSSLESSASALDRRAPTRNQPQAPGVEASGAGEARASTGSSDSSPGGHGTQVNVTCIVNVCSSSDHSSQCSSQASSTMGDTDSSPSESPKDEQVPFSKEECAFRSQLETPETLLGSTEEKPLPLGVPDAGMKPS
Test: competition flow cytometry on CHO-TNFR2 cells, competitor human TNFα-biotin

[
  {
    "binder": "224-Hu4 (antibody, V domains shown, Humanized form of #224; also called VH9 + VL6) VH: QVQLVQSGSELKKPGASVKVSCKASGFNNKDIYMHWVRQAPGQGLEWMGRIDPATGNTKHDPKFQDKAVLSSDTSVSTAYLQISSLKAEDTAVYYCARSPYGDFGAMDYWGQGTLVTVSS VL: DIQMTQSPSSLSASVGDRVTITCTASSSVSSNYLHWYQQKPGKAPKLWIYSTSNLPSGVPSRFSGSGSGTDFTLTISSLQPEDFATYYCHQYHRSPWTFGQGTKVEIK",
    "IC50 (µg/mL)": 0.058
  },
  {
    "binder": "001-Hu5 (antibody, V domains shown, Humanized form of #001; also called VH1 + VL4) VH: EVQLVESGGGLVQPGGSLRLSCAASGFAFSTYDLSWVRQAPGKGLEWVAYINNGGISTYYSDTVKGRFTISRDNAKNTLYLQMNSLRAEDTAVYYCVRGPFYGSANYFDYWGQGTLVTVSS VL: DIQMTQSPSSLSASVGDRVTITCRTSESIYSNLPWYQQKPGKSPKLLVYDATKLAEGVPSRFSGSGSGTDYTLTISSLQPEDFATYYCQHFWVTPWTFGQGTKVEIK",
    "IC50 (µg/mL)": 0.093
  },
  {
    "binder": "219-Hu4 (antibody, V domains shown, also called VH6 + VL5) VH: QVQLVQSGAEVKKPGSSVKVSCKASGYSFTNYWMNWVKQAPGQGLEWIGMIHPSDTETRLNQNFKDKATLTVDKSTSTAYMELSSLRSEDTAVYYCARGEGLGAARSVSMDYWGQGTLVTVSS VL: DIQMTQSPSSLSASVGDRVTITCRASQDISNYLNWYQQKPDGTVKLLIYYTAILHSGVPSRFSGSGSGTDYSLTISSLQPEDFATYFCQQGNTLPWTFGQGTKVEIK",
    "IC50 (µg/mL)": 0.043
  },
  {
    "binder": "219-Hu3 (antibody, V domains shown, also called VH5 + VL5) VH: QVQLVQSGAEVKKPGSSVKVSCKASGYSFTNYWMNWVRQAPGQGLEWMGMIHPSDTETRLNQNFKDRVTITADKSTSTAYMELSSLRSEDTAVYYCARGEGLGAARSVSMDYWGQGTLVTVSS VL: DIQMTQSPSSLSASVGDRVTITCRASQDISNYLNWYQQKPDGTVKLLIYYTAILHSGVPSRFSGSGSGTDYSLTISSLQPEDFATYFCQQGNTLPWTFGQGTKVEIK",
    "IC50 (µg/mL)": 0.042
  },
  {
    "binder": "219-Hu2 (antibody, V domains shown, also called VH4 + VL5) VH: QVQLVQSGAEVKKPGSSVKVSCKASGYSFTNYWMNWVRQAPGQGLEWMGMIHPSDTETRLNQNFKDKATITADKSTSTAYMELSSLRSEDTAVYYCARGEGLGAARSVSMDYWGQGTLVTVSS VL: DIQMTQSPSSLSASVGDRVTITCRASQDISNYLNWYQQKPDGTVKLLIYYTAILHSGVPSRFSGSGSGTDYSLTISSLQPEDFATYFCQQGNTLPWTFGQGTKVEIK",
    "IC50 (µg/mL)": 0.039
  },
  {
    "binder": "219-Hu1 (antibody, V domains shown, also called VH3 + VL5) VH: QVQLVQSGAEVKKPGASVKVSCKASGYSFTNYWMNWVRQAPGQRLEWMGMIHPSDTETRLNQNFKDRVTITRDTSASTAYMELSSLRSEDTAVYYCARGEGLGAARSVSMDYWGQGTLVTVSS VL: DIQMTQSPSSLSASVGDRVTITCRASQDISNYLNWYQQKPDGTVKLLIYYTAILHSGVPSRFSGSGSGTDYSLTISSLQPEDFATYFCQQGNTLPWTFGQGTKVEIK",
    "IC50 (µg/mL)": 0.047
  },
  {
    "binder": "224-Hu2 (antibody, V domains shown, Humanized form of #224; also called VH9 + VL7) VH: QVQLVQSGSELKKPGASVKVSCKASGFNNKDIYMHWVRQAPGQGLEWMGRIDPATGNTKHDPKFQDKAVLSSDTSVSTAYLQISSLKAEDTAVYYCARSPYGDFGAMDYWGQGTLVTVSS VL: DIQMTQSPSSLSASVGDRVTITCTASSSVSSNYLHWYQQKPGSSPKLWIYSTSNLPSGVPSRFSGSGSGTDFTLTISSLQPEDFATYYCHQYHRSPWTFGQGTKVEIK",
    "IC50 (µg/mL)": 0.036
  }
]
